Source listed as patent US4396550A.

- System: blood platelets (platelet-rich plasma)
- method notes: Test for the inhibition of platelet aggregation (collagen-induced, platelet-rich plasma)
- Assay type: cell-based, male white rabbits
- condition details: Oryctolagus cuniculus, Platelet, 0.05 h; depressing ratio of 50% of collagen-induced aggregation; compound 3 minutes before; read-out: Antiplatelet aggregation activity: MED
readout: minimal effective concentration

Illustrative cases are given below, each with its answer.
compound	minimal effective concentration
Cc1ccc2c(c1)C(N1CCN(C)CC1)c1ccccc1CO2 (stereo not drawn)	50 µg/mL
OCCN1CCN(C2c3ccccc3COc3ccc(Cl)cc32)CC1 (stereo not drawn)	100 µg/mL
Fc1ccc(C(NC2c3ccccc3COc3ccc(F)cc32)c2ccc(F)cc2)cc1 (stereo not drawn)	100 µg/mL
CN1CCN(C2c3ccccc3COc3ccc(F)cc32)CC1 (stereo not drawn)	100 µg/mL
OCCN1CCN(C2c3ccccc3COc3ccc(F)cc32)CC1 (stereo not drawn)	50 µg/mL
CCc1ccc2c(c1)C(NC1CC(C)(C)NC(C)(C)C1)c1ccccc1CO2 (stereo not drawn)	10 µg/mL

Please fill in: minimal effective concentration reported for CC(C)(C)c1ccc2c(c1)C(NC1CN3CCC1CC3)c1ccccc1CO2 (stereo not drawn) = 1 µg/mL

Please fill in: minimal effective concentration reported for CN(C)CCNC1c2ccccc2COc2ccc(Cl)cc21 (stereo not drawn) = 50 µg/mL

Please fill in: minimal effective concentration reported for Cc1ccc2c(c1)C(NC1CN3CCC1CC3)c1ccccc1CO2 (stereo not drawn) = 100 µg/mL
